System: human bronchial epithelial cells, CFTR corrector, plate reader
Assay protocol: rescue of ΔF508 CFTR function, airway epithelium – human bronchial epithelial cells, plate reader, cherry-pick, two tests, dose response (AID 743267)
Details: measured here: test 2 replicate run
Rule: AC50 below 7 µM gives yes (1). Equal to or above 7 µM gives no (0).

q: Decide: AC50 of `NC(=S)NN=Cc1nccc2c(N)cccc12` strictly below 7 µM?
a: yes (1)

q: Identify whether the compound O=C(CCc1ccccc1)NCC(c1ccco1)N1CCc2ccccc21 (stereo not drawn) records AC50 below 7 µM.
a: yes (1)

q: Answer whether the compound `Nc1ccc(-c2c3ccc(=O)cc-3oc3cc(O)ccc23)cc1C(=O)O` has AC50 strictly less than 7 µM
a: no (0)

q: Hi there! Is AC50 for CCOC(=O)N1CCN(C(=O)C2CCC(=O)N(CCCN3CCCC3=O)C2)CC1 (stereo not drawn) below 7 µM, do you know?
a: no (0)

q: # strict comparison: is reported AC50 < 7 µM? input = `CCN(CC)CCn1c2ccccc2c2nc3ccccc3nc21`
a: no (0)

q: Please check: AC50 for `COc1ccc(OC)c(-c2cc(-c3cccnc3)nc(N)c2C#N)c1` , strictly under 7 µM or not?
a: yes (1)

q: Is AC50 of COc1cccc(C2=CC(c3ccccc3)n3nnnc3N2)c1 (stereo not drawn) strictly below 7 µM?
a: yes (1)

q: Consider `O=S1(=O)c2ccc(Br)cc2N2CCC[C@H]2CN1Cc1ccccc1` . Does its AC50 lie strictly below 7 µM?
a: yes (1)

q: Hello, is AC50 of the following compound strictly smaller than 7 µM? `O=C(NN=C1CCCC1)c1[nH]c2ccc(Cl)cc2c1-c1ccccc1`
a: yes (1)

q: # strict comparison: is reported AC50 < 7 µM? input = `CCOc1ccc(-c2cc(C(=O)N/N=C/c3ccc(O)cc3)c3ccccc3n2)cc1`
a: no (0)

q: Lab note: confirm whether the reported AC50 for this compound is below 7 µM, equality not counting. compound: `COc1ccc(N(C)S(=O)(=O)c2cccc(C(=O)NCC3CCCCC3)c2)cc1`
a: no (0)

q: Lab note: AC50 threshold 7 µM. Does this compound come in strictly under it? `CO/N=C\CC(=O)Nc1ccc(Cl)cc1Cl`
a: no (0)

q: Quick check: does `COc1cc(OC)cc(-c2cc3ccc(OC)cc3cn2)c1` have AC50 under 7 µM?
a: no (0)

q: Decide: AC50 of `CC(=O)c1cccc(Nc2c3c(nc4ccccc24)CCC3)c1` strictly below 7 µM?
a: yes (1)

q: In plain terms, does `O=C(c1ccc(Br)cc1)c1cc([N+](=O)[O-])ccc1N1CCOCC1` come in under 7 µM for AC50?
a: yes (1)

q: Does the reported AC50 of COc1ccc(S(=O)(=O)Cc2ccc(C(=O)N3CCN(c4cccc(C)c4)C(C)C3)o2)cc1 (stereo not drawn) stay below 7 µM?
a: yes (1)

q: Dear reviewer, please state whether `COc1cc(-c2noc(C)c2C#Cc2ccccn2)cc(OC)c1OC` has AC50 strictly beneath 7 µM.
a: yes (1)

q: Dear reviewer, please state whether `CCOc1ccc(NC(=O)c2cc(OC)nc3ccccc23)cc1` has AC50 strictly beneath 7 µM.
a: yes (1)

q: Problem: For the compound `Cc1cccc(N2CCN(C(=O)c3ccc4[nH]c(C)c(C)c4c3)CC2)c1C` , is AC50 under 7 µM?
a: yes (1)

q: # TODO verify AC50 < 7 µM strictly for this compound: `Cc1cccc(NC(=S)N/N=C/c2cccc(O)c2)c1C`
a: yes (1)

----------
Kindly state AC50 for each of the entries shown.
System: human bronchial epithelial cells, CFTR corrector, plate reader
Assay protocol: rescue of ΔF508 CFTR function, airway epithelium – human bronchial epithelial cells, plate reader, cherry-pick, two tests, dose response (AID 743267)
Details: measured here: test 2 replicate run

q: Given `COc1cccc(/C=N/Nc2ncnc(Cl)c2N)c1O` , respond with its AC50.
a: 12.8 µM

q: Tell me its AC50 given `COc1ccc(COc2cc(-c3cccc(OC)c3)nc3ccc(NC(=O)c4ccc(OC)cc4)cc23)cc1` as the entry.
a: 1.89 µM

q: Supply AC50 value. Item: COc1ccc2c(c1OC)OCC2C (stereo not drawn)
a: 30.2 µM

q: Please give the documented AC50 of `O=C(NCCN1C(=O)S/C(=C\c2ccc(OC(F)F)cc2)C1=O)c1cnccn1`
a: 1.85 µM

q: Quickly give me recorded AC50 for `CCOC(=O)c1ccc(N2CCOCC2)c(NC(=O)c2c(-c3ccccc3)noc2C)c1`
a: 4.89 µM

q: # return recorded AC50 for entry `CCOC(=O)N1CCC(NC(=O)c2ccc3c(c2)N=C(C)c2c(C)ccc(C)c2S3)CC1`
a: 1.67 µM

q: Give me measured AC50, please, for this molecule: `CCN(CC)c1ccc(/C=N/NC(=O)c2cnccn2)c(O)c1`
a: 2.2 µM

q: Supply reported AC50 belonging to this molecule: `Cc1c(OCC(=O)NCCN2CCOCC2)ccc2c3c(c(=O)oc12)CCC3`
a: > 50 µM

q: Please report AC50 for the following molecule: `CNc1ccc2c3c(cccc13)C(=O)N(C)C2=O`
a: 7.59 µM

q: Give recorded AC50. `Cc1ccc(-c2csc3ncn(CC#N)c(=O)c23)cc1C`
a: 35.7 µM

q: State its AC50 for this molecule: `O=c1ccc2c(-c3ccccc3)c3ccc(O)cc3oc-2c1`
a: 2.2 µM

q: State its AC50: Cc1cccc(NC(=O)CN2CCN(C(=O)CN3C(=O)NC4(CC(C)CC(C)(C)C4)C3=O)CC2)c1C (stereo not drawn)
a: 2.69 µM

q: // fetch AC50 given entry `NS(=O)(=O)c1ccc(CNc2ccc3ccccc3n2)cc1`
a: > 50 µM

q: Output measured AC50 for this item: `COc1ccccc1Cc1c(-c2ccc(Cl)cc2)nc2ccc(Br)cn12`
a: 8.16 µM

q: Supply reported AC50 belonging to this molecule: `Cc1cc(C)c2nc(Cl)c(CN(Cc3ccco3)C(=O)Nc3ccccc3C)cc2c1`
a: 2.87 µM

q: Report measured AC50; entry is `Nc1sc(-c2ccccc2)cc1-c1n[nH]c(=S)n1C1CCCCC1`
a: 2.45 µM

q: Given the molecule `COc1ccc(S(=O)(=O)N2CCN(CCOc3ccccc3Cl)CC2)cc1OC` , write its reported AC50.
a: 38.7 µM

q: Using known records, supply AC50 for `COc1cc(OC)cc(C(=O)N2CC(=O)Nc3ccccc32)c1`
a: 2.1 µM

q: Provide only the value of recorded AC50 for `O=c1c(O)c(-c2cccs2)oc2ccc(Cl)cc12`
a: 6.12 µM

q: Report AC50, nothing else, for this molecule: `CC1(C)Cc2c(c(-c3ccco3)nc3sc4c(NCCN5CCOCC5)ncnc4c23)CO1`
a: 3.92 µM

q: Hello, please tell me recorded AC50 for this one: `O=C1NC(=Nc2ccc(O)cc2)S/C1=C/c1ccco1`
a: 4.91 µM

q: Identify measured AC50 corresponding to `CC(C)(C)c1ccc(OCC(=O)Nc2ccc3c4c(cccc24)C(=O)NC3=O)cc1`
a: 18.4 µM

q: Identify measured AC50 corresponding to `COc1ccc(C(=O)c2ccc(N(C)C)cc2)c(OC)c1`
a: 3.82 µM

----------
Tested on: human bronchial epithelial cells, CFTR corrector, plate reader
Assay protocol: rescue of ΔF508 CFTR function, airway epithelium – human bronchial epithelial cells, plate reader, cherry-pick, two tests, dose response (AID 743267)
Details: measured here: test 2 replicate run
Task for the reader: assign each of the following molecules its reported AC50.
Please give a number only; it is taken to be in µM.

q: Please indicate AC50 recorded for CCCCC(=NCCc1c(C)[nH]c2ccccc12)C1=C(O)CC(c2ccccc2)CC1=O (stereo unspecified)
a: 3.92

q: Please look at this molecule and report its AC50: `COc1ccc(S(=O)(=O)N(C(=O)C(C)C)c2ccc3oc(=O)sc3c2)cc1`
a: 7.6

q: Give the measured AC50 for COCCOC(=O)c1[nH]c2c(c1C)C(=O)CC(c1cccs1)C2 (stereo unspecified)
a: 4.16

q: Return value of AC50 for input `O=C(N/N=C/c1c(O)ccc2ccccc12)c1ccc(Br)o1` , no commentary.
a: 6.34

q: Identify measured AC50 associated with COc1ccc(NC(=O)C(=O)NCC2CCCN2S(=O)(=O)c2cccs2)cc1 (stereo unspecified)
a: 3.63

q: Give a short answer stating reported AC50 for COC(=O)c1ccc(C(=O)NC2CCCc3c2cnn3-c2ccc(C)c(C)c2)cc1 (stereo unspecified) .
a: 1.02

q: Provide measured AC50 value, entry: `O=C(N/N=C/c1ccccc1OC(F)F)c1cc(-c2ccncc2)nc2ccccc12`
a: 0.798

q: Indicate the recorded AC50 value for this molecule: `COc1cc(OC)c2c(-c3cccc(-c4ccc(OC)c(OC)c4)c3)cc(=O)oc2c1`
a: 0.594

q: Return value of AC50 for input `CC(=O)Oc1c(C)cc(Cl)cc1C(=O)Nc1ccc([N+](=O)[O-])cc1Cl` , no commentary.
a: 1.38

q: Identify the reported AC50 for the following entry. `C/C(=N\NC(=O)c1cc(-c2cccs2)nc2ccccc12)c1ccccn1`
a: 2.45

q: Specify measured AC50 for `O=c1cc(-c2ccc(O)c(O)c2)oc2cc(O)cc(O)c12` .
a: 29.3

q: Fill in AC50 for record `O=C1/C(=C\c2cc(Cl)c(O)c(Cl)c2)SC(=S)N1Cc1ccccc1`
a: 3.15

q: Give me measured AC50, please, for this molecule: `Cc1ncc(CO)c(/C=N/Nc2ccc(C(F)(F)F)cn2)c1O`
a: 1.18

q: Return the recorded AC50 value; entry: `O=C(Cc1ccc(Br)cc1)NCc1ccccc1`
a: 4.85

q: State, in one line, measured AC50 of `Clc1ccc(CSc2nncn2-c2ccc3c(c2)OCCO3)cc1`
a: 9.62

Sourced from PubChem BioAssay AID743267
